Recorded values, source patent US6169181A.

Would you mind telling me the reported Ki of each entry?
- system-tested: HIV-1 protease (Human immunodeficiency virus type 1 group M subtype B, UniProt P04585)
- protocol-details: biochemical
- applied-conditions: Table I; read-out: HIV Protease FITC Assay Ki
State the answer as a number, implicitly in nM.

Lab note: need Ki with HIV-1 protease (Human immunodeficiency virus type 1 group M subtype B, UniProt P04585) for entry CC(C)(C)C(C1=C(O)CC(CCC2CC2)(CCC2CC2)OC1=O)c1cccc(NS(=O)(=O)c2ccc(C#N)cn2)c1 (stereo not shown) , please look it up.
1

Form entry - test system: HIV-1 protease (Human immunodeficiency virus type 1 group M subtype B, UniProt P04585); read-out: Ki; compound: CCCC1(CCc2ccc(F)cc2)CC(O)=C(C(c2cccc(NS(=O)(=O)c3cn(C)cn3)c2)C(C)(C)C)C(=O)O1 (stereo not shown)
1.6

Record lookup: for HIV-1 protease (Human immunodeficiency virus type 1 group M subtype B, UniProt P04585), what Ki belongs to Cc1ccc(S(=O)(=O)Cc2cccc(C(c3c(O)c4c(oc3=O)CCCCCC4)C3CC3)c2)cc1 (stereo not shown) ?
4.15

Please state recorded Ki (tested on HIV-1 protease (Human immunodeficiency virus type 1 group M subtype B, UniProt P04585)) of O=c1oc(C(CC2CC2)CC2CC2)cc(O)c1C(c1cccc(NS(=O)(=O)c2ncc[nH]2)c1)C1CC1 (stereo not shown)
0.7

* * *

Kindly supply the reported inhibition at 0.123 µM values for the records listed here.
- system-tested: HIV-1 protease (Human immunodeficiency virus type 1 group M subtype B, UniProt P04585)
- protocol-details: biochemical
- applied-conditions: read-out: Protease % Inhib
Field format: number, assumed %, no unit text.

Give inhibition at 0.123 µM (HIV-1 protease (Human immunodeficiency virus type 1 group M subtype B, UniProt P04585)) of the following compound: O=c1oc2c(c(O)c1C(c1cccc(CS(=O)(=O)c3ccccc3)c1)C1CC1)CCCCCC2 (centres unmarked) [Example 10]
102

Hi! What's the reported inhibition at 0.123 µM for COCCOCCOCCOc1ccc2c(O)c(C(c3cccc(NS(=O)(=O)c4cn(C)cn4)c3)C3CC3)c(=O)oc2c1 (centres unmarked) [Example 151] on HIV-1 protease (Human immunodeficiency virus type 1 group M subtype B, UniProt P04585)?
111

Item COCCOCCOCCOc1ccc2c(O)c(C(c3cccc(NS(=O)(=O)c4ccccn4)c3)C3CC3)c(=O)oc2c1 (centres unmarked) [Example 154] with HIV-1 protease (Human immunodeficiency virus type 1 group M subtype B, UniProt P04585) - inhibition at 0.123 µM?
99.8

# value lookup — system HIV-1 protease (Human immunodeficiency virus type 1 group M subtype B, UniProt P04585), readout inhibition at 0.123 µM, item Cn1cnc(S(=O)(=O)Nc2cccc(C(c3c(O)cc(C(CC4CC4)CC4CC4)oc3=O)C3CC3)c2)c1 (centres unmarked) [Example 97]
105

What measured inhibition at 0.123 µM is associated with CCCC1(CCc2ccccc2)CC(O)=C(C(CC)c2cccc(NS(=O)(=O)c3cccc4cccnc34)c2)C(=O)O1 (centres unmarked) [Example 42] on HIV-1 protease (Human immunodeficiency virus type 1 group M subtype B, UniProt P04585)?
86.2

* * *

Field: inhibition at 30 µM. Provide a value for each of the molecules that follow.
- system-tested: HIV-1 protease (Human immunodeficiency virus type 1 group M subtype B, UniProt P04585)
- protocol-details: biochemical
- applied-conditions: Table I; Dose 30.000 μM; read-out: Protease % Inhib
Number in %, nothing else.

Request - read-out inhibition at 30 µM | tested on HIV-1 protease (Human immunodeficiency virus type 1 group M subtype B, UniProt P04585) | molecule CC[C@H](Cc1ccccc1)c1cc(O)c(C(c2cccc(NS(=O)(=O)c3cn(C)cn3)c2)C2CC2)c(=O)o1 (single isomer, unassigned) [Example 137]
93.8

Lab request: please report inhibition at 30 µM under test system HIV-1 protease (Human immunodeficiency virus type 1 group M subtype B, UniProt P04585) for O=c1oc(C(CC2CC2)CC2CC2)cc(O)c1C(c1cccc(NS(=O)(=O)c2cccc3cccnc23)c1)C1CC1 (stereo not drawn) [Example 96]
109

What value of inhibition at 30 µM on HIV-1 protease (Human immunodeficiency virus type 1 group M subtype B, UniProt P04585) does CC[C@H](Cc1ccccc1)c1cc(O)c(C(c2cccc(NS(=O)(=O)c3ncc[nH]3)c2)C2CC2)c(=O)o1 (stereo partly drawn) [Example 147] have?
108

What inhibition at 30 µM appears in the records for this molecule with HIV-1 protease (Human immunodeficiency virus type 1 group M subtype B, UniProt P04585)? CCCC1CCCCCc2c1oc(=O)c(C(c1cccc(NS(=O)(=O)c3ccccc3)c1)C1CC1)c2O (stereo not drawn) [Example 1]
97.4

Recall the recorded inhibition at 30 µM for CCCC1(CCc2ccccc2)CC(O)=C(C(c2cccc(NS(=O)(=O)c3cccc4cccnc34)c2)C2CC2)C(=O)O1 (stereo not drawn) [Example 60] with HIV-1 protease (Human immunodeficiency virus type 1 group M subtype B, UniProt P04585) and state it.
107

Identify the measured inhibition at 30 µM of CC[C@H](Cc1ccccc1)c1cc(O)c(C(c2cccc(NS(=O)(=O)c3ccccn3)c2)C2CC2)c(=O)o1 (single isomer, unassigned) [Example 141] for HIV-1 protease (Human immunodeficiency virus type 1 group M subtype B, UniProt P04585).
98.5

What measured inhibition at 30 µM is associated with CCCC1(CCc2ccccc2)CC(O)=C(C(CC)c2cccc(NS(=O)(=O)c3ccc(C#N)cc3)c2)C(=O)O1 (stereo not drawn) [Example 40] on HIV-1 protease (Human immunodeficiency virus type 1 group M subtype B, UniProt P04585)?
72.7

Tell me reported inhibition at 30 µM for CCCC1(CCC)CC(O)=C(C(c2cccc(NS(=O)(=O)c3ccc(F)cc3)c2)C2CC2)C(=O)O1 (stereo not drawn) [Example 51] , tested with HIV-1 protease (Human immunodeficiency virus type 1 group M subtype B, UniProt P04585).
79.7

State its inhibition at 30 µM on HIV-1 protease (Human immunodeficiency virus type 1 group M subtype B, UniProt P04585): N#Cc1ccc(S(=O)(=O)Cc2cccc(C(c3c(O)c4c(oc3=O)CCCCCC4)C3CC3)c2)cc1 (stereo not drawn) [Example 11]
104

Could you share what inhibition at 30 µM was measured for CCC(CCBr)c1cc(O)c(C(c2cccc(NS(=O)(=O)c3cn(C)cn3)c2)C2CC2)c(=O)o1 (stereo not drawn) [Example 108] , tested on HIV-1 protease (Human immunodeficiency virus type 1 group M subtype B, UniProt P04585)?
106

Request: inhibition at 30 µM, test system HIV-1 protease (Human immunodeficiency virus type 1 group M subtype B, UniProt P04585), entry CCCC1(CCC)CC(O)=C(C(CC)c2cccc(NS(=O)(=O)c3cccc4cccnc34)c2)C(=O)O1 (stereo not drawn) [Example 43]
85.6

// lookup inhibition at 30 µM | system=HIV-1 protease (Human immunodeficiency virus type 1 group M subtype B, UniProt P04585) | key= Cn1cnc(S(=O)(=O)Nc2cccc(C(C3=C(O)CC(CCc4ccccc4)(CCc4ccccc4)OC3=O)C3CC3)c2)c1 (stereo not drawn) [Example 62]
79.4

Form entry - test system: HIV-1 protease (Human immunodeficiency virus type 1 group M subtype B, UniProt P04585); read-out: inhibition at 30 µM; molecule: Cn1ccnc1S(=O)(=O)Nc1cccc(C(c2c(O)cc(C(CC3CC3)CC3CC3)oc2=O)C2CC2)c1 (stereo not drawn) [Example 100]
101

Reported inhibition at 30 µM for HIV-1 protease (Human immunodeficiency virus type 1 group M subtype B, UniProt P04585), given CC(C)CC(c1cccc(NS(=O)(=O)c2cn(C)cn2)c1)c1c(O)c2c(oc1=O)CCCCCC2 (single isomer, unassigned) [Example 8] ?
102

Request - read-out inhibition at 30 µM | tested on HIV-1 protease (Human immunodeficiency virus type 1 group M subtype B, UniProt P04585) | molecule CC[C@@H](Cc1ccccc1)c1cc(O)c(C(c2cccc(NS(=O)(=O)c3cn(C)cn3)c2)C2CC2)c(=O)o1 (single isomer, unassigned) [Example 139]
103

Reported inhibition at 30 µM for HIV-1 protease (Human immunodeficiency virus type 1 group M subtype B, UniProt P04585), given CCCC1(CCC)CC(O)=C(C(CC)c2cccc(NS(=O)(=O)c3cn(C)cn3)c2)C(=O)O1 (single isomer, unassigned) [Example 53] ?
84.4

Write down the reported inhibition at 30 µM of CN(c1cccc(C(c2c(O)c3c(oc2=O)CCCCCC3)C2CC2)c1)S(=O)(=O)c1ccc(C#N)cc1 (stereo not drawn) [Example 192] , test system: HIV-1 protease (Human immunodeficiency virus type 1 group M subtype B, UniProt P04585).
94.4

Form field: inhibition at 30 µM recorded for O=c1oc(C(CC2CC2)CC2CC2)cc(O)c1C(c1cccc(NS(=O)(=O)c2ccccn2)c1)C1CC1 (stereo not drawn) [Example 99] with HIV-1 protease (Human immunodeficiency virus type 1 group M subtype B, UniProt P04585) (enter value)
103

Lab note: need inhibition at 30 µM with HIV-1 protease (Human immunodeficiency virus type 1 group M subtype B, UniProt P04585) for entry CCCC1(CCC)CC(O)=C(C(c2cccc(NS(=O)(=O)c3cn(C)cn3)c2)C2CC2)C(=O)O1 (stereo not drawn) [Example 48] , please look it up.
105

Provide the documented inhibition at 30 µM with HIV-1 protease (Human immunodeficiency virus type 1 group M subtype B, UniProt P04585) as the system for O=c1oc2c(c(O)c1C(c1cccc(NS(=O)(=O)c3ccccn3)c1)C1CC1)CCCCCC2 (stereo not drawn) [Example 239]
108

Form entry - test system: HIV-1 protease (Human immunodeficiency virus type 1 group M subtype B, UniProt P04585); read-out: inhibition at 30 µM; molecule: CCC(C1=C(O)CC(CC(C)C)(CC(C)C)OC1=O)c1cccc(NS(=O)(=O)c2cn(C)cn2)c1 (stereo not drawn) [Example 47]
84.5

Provide value of inhibition at 30 µM for this record tested with HIV-1 protease (Human immunodeficiency virus type 1 group M subtype B, UniProt P04585): CC[C@H](Cc1ccccc1)c1cc(O)c(C(c2cccc(NS(=O)(=O)c3nc4ccccc4[nH]3)c2)C2CC2)c(=O)o1 (stereo partly drawn) [Example 146]
102

Find inhibition at 30 µM (HIV-1 protease (Human immunodeficiency virus type 1 group M subtype B, UniProt P04585)) for the entry CC[C@H](Cc1ccccc1)c1cc(O)c(C(c2cccc(NS(=O)(=O)c3ccc(C#N)cc3)c2)C2CC2)c(=O)o1 (single isomer, unassigned) [Example 148]
93.5

# value lookup — system HIV-1 protease (Human immunodeficiency virus type 1 group M subtype B, UniProt P04585), readout inhibition at 30 µM, item CCCC1(CCc2ccccc2)CC(O)=C(C(c2cccc(NS(=O)(=O)c3cn(C)cn3)c2)C2CC2)C(=O)O1 (stereo not drawn) [Example 61]
104

What is its inhibition at 30 µM for HIV-1 protease (Human immunodeficiency virus type 1 group M subtype B, UniProt P04585)? Entry: CCCC1(CCC)CC(O)=C(C(CC)c2cccc(NS(=O)(=O)c3cccc4cccnc34)c2)C(=O)O1 (single isomer, unassigned) [Example 52]
88.9

Give recorded inhibition at 30 µM with HIV-1 protease (Human immunodeficiency virus type 1 group M subtype B, UniProt P04585) for the following molecule: CC(C)CC(c1cccc(NS(=O)(=O)c2cn(C)cn2)c1)c1c(O)c2c(oc1=O)CCCCCC2 (single isomer, unassigned) [Example 9]
108

Fill in the recorded inhibition at 30 µM for this molecule, with HIV-1 protease (Human immunodeficiency virus type 1 group M subtype B, UniProt P04585) as test system: CCCCCC1(CCCCC)CC(O)=C(C(CC)c2cccc(NS(=O)(=O)c3ccc(C#N)cc3)c2)C(=O)O1 (stereo not drawn) [Example 64]
84.4
